# Test target: human Orai1 (human, UniProt Q96D31 1-301)
# Sequence (Q96D31 whole entry): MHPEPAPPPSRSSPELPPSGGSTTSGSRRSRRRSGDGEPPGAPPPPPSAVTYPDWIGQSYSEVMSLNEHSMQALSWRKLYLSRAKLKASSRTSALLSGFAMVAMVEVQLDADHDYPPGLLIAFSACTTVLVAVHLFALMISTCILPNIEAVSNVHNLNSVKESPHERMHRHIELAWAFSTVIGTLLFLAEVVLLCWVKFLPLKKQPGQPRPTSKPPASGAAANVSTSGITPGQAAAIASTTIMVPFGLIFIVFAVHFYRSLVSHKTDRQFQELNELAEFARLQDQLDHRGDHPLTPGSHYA
# Protocol summary: cell-based or functional assay
Readout type: IC50, IL-2 release from Jurkat cells treated with PMA and A23187

Using the record for human anti-human Orai1 antibody 2C1.1 (antibody, human IgG2, lambda, V domains shown) VH: QVQLQQWGAGLLKPSETLSLTCAVYGGSFSGYYWSWIRQPPGKGLEWIGEIDHSGSTNYNPALKSRLTISVDTSKNQFSLKLSSVTAADTAVYYCARAGSGGYEDWFDPWGQGTLVTVSS VL: QSVLTQPPSVSGAPGQRVTISCTGSSSNIGAGYNVHWYQQFPRTDPKLLIYVYNIRPSGVPDRFSGSRSGTSASLAITGLQTEDEADYYCQSYDSSLSGVVFGGGTKLTVLG , report its IC50, IL-2 release from Jurkat cells treated with PMA and A23187.
≥ 0.08 µg/mL

These entries and their values trace back to patent US20170226203A1.
